- System: HCT-15 colon
- Experiment description: NCI-60 one-dose screen, 48 h
- Test settings: 10 µM unless noted
- Description: Growth inhibition of the HCT-15 human tumor cell line is measured as a screen for anti-cancer activity. Cells are grown in 96 well plates and exposed to the test compound for 48 hours. Compounds are tested at a single concentration, which is 10^-5 M for most compounds. The reported endpoint is percent growth (GI% or GIPRCNT), where numbers from 0 - 100% represent growth inhibition, and numbers from -100% - 0 represent cell death. For example, a value of 40 represents 60% growth inhibition. […]
The panel holds about 83,000 compounds, 20% with a hit somewhere; the sample as a whole holds those more often. Active and inactive are the calls of the source. How the source made its calls: active means growth percent below 10; inactive means the rest.
Pick one and only one: active, inactive

These recorded examples may help you get a feel for the data.
Cc1ccccc1[C@H]1C(C(=O)c2ccc(Cl)cc2)C2(N[C@@H]1c1ccccc1)C(=O)Nc1ccc(Cl)cc12 (stereo not given in full): active
COc1ccc(C(=O)/C=C/c2c(F)cccc2Cl)cc1S(N)(=O)=O: active
CC(/C=C1\SC(=S)N(CCCC(=O)NC(CC(C)C)C(=O)O)C1=O)=C\c1ccccc1 (stereo not given): inactive
COc1ccc(C(=O)/C=C/c2ccc(Oc3nc(Nc4ccc(F)cc4)nc(N(C)C)n3)c(OC)c2)cc1: inactive

Here is the next item to consider.
So what was the verdict on N#Cc1c(-c2cccc(Cl)c2Cl)cc(-c2ccc3ccccc3c2)[nH]c1=O in this test?
inactive

src = PubChem BioAssay (NCI)
